- Tested on: human HL60 cells
- assay-details: SWATH-MS proteomics, differential protein representation, akirin2 KO vs WT HL60 cells
- Assay type: cell-based
- test-context: akirin2 KO vs WT HL60 cells; sheet "Under-represented in KO"
value-type: Log (Fold Change)

{"columns": ["molecule", "result"],
 "data": [
  ["sp¦P20645¦MPRD_HUMAN (protein, UniProt P20645 27-277, looked up) Cation-dependent …: TEEKTCDLVGEKGKESEKELALVKRLKPLFNKSFESTVGQGSDTYIYIFRVCREAGNHTSGAGLVQINKSNGKETVVGRLNETHIFNGSNWIMLIYKGGDEYDNHCGKEQRRAVVMISCNRHTLADNFNPVSEERGKVQDCFYLFEMDSSLACSPEISHLSVGSILLVTFASLVAVYVVGGFLYQRLVVGAKGMEQFPHLAFWQDLGNLVADGCDFVCRSKPRNVPAAYRGVGDDQLGEESEERDDHLLPM", -0.1953],
  ["sp¦P13995¦MTDC_HUMAN (protein, UniProt P13995 36-350, looked up) Bifunctional …: EAVVISGRKLAQQIKQEVRQEVEEWVASGNKRPHLSVILVGENPASHSYVLNKTRAAAVVGINSETIMKPASISEEELLNLINKLNNDDNVDGLLVQLPLPEHIDERRICNAVSPDKDVDGFHVINVGRMCLDQYSMLPATPWGVWEIIKRTGIPTLGKNVVVAGRSKNVGMPIAMLLHTDGAHERPGGDATVTISHRYTPKEQLKKHTILADIVISAAGIPNLITADMIKEGAAVIDVGINRVHDPVTAKPKLVGDVDFEGVRQKAGYITPVPGGVGPMTVAMLMKNTIIAAKKVLRLEEREVLKSKELGVATN", -0.1662],
  ["sp¦Q9Y5Y2¦NUBP2_HUMAN (protein, UniProt Q9Y5Y2 1-271, looked up) Cytosolic Fe-S cluster …: MEAAAEPGNLAGVRHIILVLSGKGGVGKSTISTELALALRHAGKKVGILDVDLCGPSIPRMLGAQGRAVHQCDRGWAPVFLDREQSISLMSVGFLLEKPDEAVVWRGPKKNALIKQFVSDVAWGELDYLVVDTPPGTSDEHMATIEALRPYQPLGALVVTTPQAVSVGDVRRELTFCRKTGLRVMGIVENMSGFTCPHCTECTSVFSRGGGEELAQLAGVPFLGSVPLDPALMRTLEEGHDFIQEFPGSPAFAALTSIAQKILDATPACLP", -0.1623],
  ["sp¦P21912¦SDHB_HUMAN (protein, UniProt P21912 29-280, looked up) Succinate dehydrogenase …: AQTAAATAPRIKKFAIYRWDPDKAGDKPHMQTYEVDLNKCGPMVLDALIKIKNEVDSTLTFRRSCREGICGSCAMNINGGNTLACTRRIDTNLNKVSKIYPLPHMYVIKDLVPDLSNFYAQYKSIEPYLKKKDESQEGKQQYLQSIEEREKLDGLYECILCACCSTSCPSYWWNGDKYLGPAVLMQAYRWMIDSRDDFTEERLAKLQDPFSLYRCHTIMNCTRTCPKGLNPGKAIAEIKKMMATYKEKKASV", -0.179],
  ["sp¦Q8WZA0¦LZIC_HUMAN (protein, UniProt Q8WZA0 1-190, looked up) Protein LZIC: MASRGKTETSKLKQNLEEQLDRLMQQLQDLEECREELDTDEYEETKKETLEQLSEFNDSLKKIMSGNMTLVDELSGMQLAIQAAISQAFKTPEVIRLFAKKQPGQLRTRLAEMDRDLMVGKLERDLYTQQKVEILTALRKLGEKLTADDEAFLSANAGAILSQFEKVSTDLGSGDKILALASFEVEKTKK", -0.3635],
  ["sp¦P47985¦UCRI_HUMAN (protein, UniProt P47985 79-274, looked up) Cytochrome b-c1 complex …: SHTDIKVPDFSEYRRLEVLDSTKSSRESSEARKGFSYLVTGVTTVGVAYAAKNAVTQFVSSMSASADVLALAKIEIKLSDIPEGKNMAFKWRGKPLFVRHRTQKEIEQEAAVELSQLRDPQHDLDRVKKPEWVILIGVCTHLGCVPIANAGDFGGYYCPCHGSHYDASGRIRLGPAPLNLEVPTYEFTSDDMVIVG", -0.6306],
  ["sp¦P40926¦MDHM_HUMAN (protein, UniProt P40926 25-338, looked up) Malate dehydrogenase, …: AKVAVLGASGGIGQPLSLLLKNSPLVSRLTLYDIAHTPGVAADLSHIETKAAVKGYLGPEQLPDCLKGCDVVVIPAGVPRKPGMTRDDLFNTNATIVATLTAACAQHCPEAMICVIANPVNSTIPITAEVFKKHGVYNPNKIFGVTTLDIVRANTFVAELKGLDPARVNVPVIGGHAGKTIIPLISQCTPKVDFPQDQLTALTGRIQEAGTEVVKAKAGAGSATLSMAYAGARFVFSLVDAMNGKEGVVECSFVKSQETECTYFSTPLLLGKKGIEKNLGIGKVSSFEEKMISDAIPELKASIKKGEDFVKTLK", -0.1642],
  ["sp¦Q15907¦RB11B_HUMAN (protein, UniProt Q15907 2-215, looked up) Ras-related protein Rab-11B: GTRDDEYDYLFKVVLIGDSGVGKSNLLSRFTRNEFNLESKSTIGVEFATRSIQVDGKTIKAQIWDTAGQERYRAITSAYYRGAVGALLVYDIAKHLTYENVERWLKELRDHADSNIVIMLVGNKSDLRHLRAVPTDEARAFAEKNNLSFIETSALDSTNVEEAFKNILTEIYRIVSQKQIADRAAHDESPGNNVVDISVPPTTDGQKPNKLQCC", -0.1984],
  ["sp¦P00387¦NB5R3_HUMAN (protein, UniProt P00387 2-301, looked up) NADH-cytochrome b5 reductase 3: GAQLSTLGHMVLFPVWFLYSLLMKLFQRSTPAITLESPDIKYPLRLIDREIISHDTRRFRFALPSPQHILGLPVGQHIYLSARIDGNLVVRPYTPISSDDDKGFVDLVIKVYFKDTHPKFPAGGKMSQYLESMQIGDTIEFRGPSGLLVYQGKGKFAIRPDKKSNPIIRTVKSVGMIAGGTGITPMLQVIRAIMKDPDDHTVCHLLFANQTEKDILLRPELEELRNKHSARFKLWYTLDRAPEAWDYGQGFVNEEMIRDHLPPPEEEPLVLMCGPPPMIQYACLPNLDHVGHPTERCFVF", -0.4263]
]}
